# Tested on: SK-MEL-2 melanoma
# ASSAY COMMENT: NCI-60 one-dose screen, 48 h (100 = growth as untreated, 0 = no growth, -100 = all killed)
# MEASUREMENT SETUP: 10 µM unless noted
This is part of a sample that, as a whole, favours compounds with a hit. Of some 83,000 tested, about 20% had one in any assay.
MEASURED METRIC: growth (%)
Express the result in % but write the number alone.

Looking up NC(=O)Oc1cc(OC(N)=O)cc(N(CCCl)CCCl)c1 , I see its growth listed as 93.2

Looking up Cc1ccc(NC2=N[C@]34CC(=O)CC[C@]3(C)[C@H]3CC[C@]5(C)C(=O)CC[C@H]5[C@@H]3C[C@@H]4S2)c(C)c1 , I see its growth listed as 72.6

Looking up CC1=C2[C@H]3OC(=O)[C@@H](C)[C@@H]3CC[C@@]2(C)C=CC1=O , I see its growth listed as -0.59

Looking up CCCC(C)SP(=S)(SC(C)CCC)SC(C)CCC (centres undefined) , I see its growth listed as 107

Looking up CCOC(=O)C1C(C=C(C)C)C1(C)C (centres undefined) , I see its growth listed as 121

Looking up C[C@]12CC[C@H]3[C@@H](CC=C4c5nc(N)sc5CC[C@@]43C)[C@@H]1CC[C@@H]2O , I see its growth listed as 98

Looking up O=Cc1cn(Cc2ccccc2)c2ccccc12 , I see its growth listed as 27.1

Looking up C[C@]12CCC(=O)C[C@@H]1CC[C@@H]1[C@@H]2CC[C@]2(C)[C@@H](OC(=O)N(CCCl)N=O)CC[C@@H]12 , I see its growth listed as 17.7

Looking up C[C@@]12CCCc3coc(c31)C(=O)c1cc3c(cc12)C(=O)C1=C(NCCS1(=O)=O)C3=O , I see its growth listed as -41.3

Looking up C[C@H](O)CCC(=O)c1ccoc1 , I see its growth listed as 110

Looking up CC[C@H](C)[C@H](NC(=O)CN(C)C)C(=O)N(C)[C@H](C[C@@H](OC(C)=O)c1nc(C(=O)NC23CC(C(=O)OC)(C2)C3)cs1)C(C)C , I see its growth listed as 37.5

Looking up CC1(C)N(Nc2ccccc2)C(=O)C2CCCN21 (centres undefined) , I see its growth listed as 84

Looking up O=C(O)c1ccccc1N(CCO)CCCl , I see its growth listed as 116

Looking up CC[C@H](C)[C@H](NC(=O)[C@H]1CCCCN1C)C(=O)N(C)[C@H](C(=O)NC12CC(C(=O)N[C@@H](Cc3ccccc3)C[C@H](C)C(=O)OC)(C1)C2)C(C)C , I see its growth listed as 89.3

Looking up Cc1nnc([S-])o1.[Au+].c1ccc([PH+](c2ccccc2)c2ccccc2)cc1 , I see its growth listed as 47.9

Looking up C[C@]12CC[C@H]3[C@@H](C[C@@H]4SC(Nc5cccc(F)c5)=N[C@@]45CC(=O)CC[C@]35C)[C@@H]1CCC2=O , I see its growth listed as 21.8

Looking up Cc1cc2c(cc1-c1ccnc(/C=C/C(=O)O)c1)C(C)(C)CCC2(C)C , I see its growth listed as 93.9

Looking up Cc1nc2ccccc2c(=O)n1-c1ccccc1F , I see its growth listed as 105

Looking up O=[N+]([O-])c1cc(Cl)c(Cl)c([N+](=O)[O-])c1Cl , I see its growth listed as 116

---

# Test system: UO-31 renal
# ASSAY COMMENT: NCI-60 one-dose screen, 48 h (100 = growth as untreated, 0 = no growth, -100 = all killed)
# MEASUREMENT SETUP: 10 µM unless noted
# Description: Growth inhibition of the UO-31 human tumor cell line is measured as a screen for anti-cancer activity. Cells are grown in 96 well plates and exposed to the test compound for 48 hours. Compounds are tested at a single concentration, which is 10^-5 M for most compounds. The reported endpoint is percent growth (GI% or GIPRCNT), where numbers from 0 - 100% represent growth inhibition, and numbers from -100% - 0 represent cell death. For example, a value of 40 represents 60% growth inhibition. […]
About 83,000 compounds went through this panel and 20% of them were active in at least one assay; those are over-represented in the sample as a whole. Active and inactive are the calls of the source. The calls were made as follows: active = growth percent below 10; inactive = the rest.
Kindly supply the reported growth values for the records listed here.

Looking up COC[C@H]1OC(=O)c2coc3c2[C@@]1(C)C1=C(C3=O)[C@@H]2CCC(=O)[C@@]2(C)C[C@H]1OC(C)=O , I see its growth listed as 31.4% (inactive)

Looking up NC(=O)Oc1cc(OC(N)=O)cc(N(CCCl)CCCl)c1 , I see its growth listed as 34.5% (inactive)

Looking up O=C1CN2CCC1CC2 , I see its growth listed as 84.6% (inactive)

Looking up CC(C)c1cccc(C(C)C)c1O , I see its growth listed as 88% (inactive)

Looking up NC1CN2CCC1CC2 (stereo unspecified) , I see its growth listed as 80.3% (inactive)

Looking up O=C/C=C/c1ccco1 , I see its growth listed as 88.9% (inactive)

Looking up Nc1c(Cl)c(Cl)nc(C(=O)O)c1Cl , I see its growth listed as 71.1% (inactive)

Looking up O=C(O)CNCP(=O)(O)O , I see its growth listed as 72.8% (inactive)

Looking up C#COc1cccc(Nc2ncnc3cc(NC(=O)CF)ccc23)c1 , I see its growth listed as 60.9% [6.25 µM] (inactive)

Looking up C#Cc1cccc(Nc2nc(Cl)nc3cc(NC(=O)CF)ccc23)c1 , I see its growth listed as 74% (inactive)

Looking up Nc1ccc2c(c1)Cc1cc(N)ccc1-2 , I see its growth listed as 62.6% (inactive)

---

# Test system: SK-OV-3 ovarian
# ASSAY COMMENT: NCI-60 one-dose screen, 48 h
# MEASUREMENT SETUP: 10 µM unless noted
About 83,000 compounds went through this panel and 20% of them were active in at least one assay; those are over-represented in the sample as a whole. Calls of active or inactive are those of the source. How the source made its calls: active means growth percent below 10; inactive means the rest.
// classify into active, inactive

Query: recorded result category for CC[C@H](C)[C@H](NC(=O)CN(C)C)C(=O)N(C)[C@H](C[C@@H](OC(C)=O)c1nc(C(=O)NC23CC(C(=O)OC)(C2)C3)cs1)C(C)C in this test
inactive

Query: recorded result category for c1ccc2c(c1)sc1ccccc12 in this test
inactive

Query: recorded result category for CCCCn1c(=O)c(C(=O)NCc2ccccc2Cl)c(O)c2ccccc21 in this test
inactive

Query: recorded result category for C[C@]12CCc3sc(Nc4ccc(F)cc4)nc3C1=CC[C@@H]1[C@@H]2CC[C@]2(C)C(=O)CC[C@@H]12 in this test
inactive

Query: recorded result category for CO/N=C1\CC[C@]2(C)[C@H]3CC[C@]4(C)C(=O)CC[C@H]4[C@@H]3C[C@@H]3SC(N)=N[C@@]32C1 in this test
inactive

Query: recorded result category for COc1ccc(N)cc1N in this test
inactive

Query: recorded result category for C=CC1CN2CCC1CC2C(O)c1ccnc2ccccc12 (stereo not given) in this test
inactive

Query: recorded result category for O=S1(=O)OCCO1 in this test
inactive

Query: recorded result category for COc1cc2c(cc1OC)-c1c3c(cc4c1[C@@H](C2)N(C)CC4)OCO3 in this test
inactive

Query: recorded result category for C[N+]12CCC34C5=CC(=O)C(=O)C=C5[N+]5(C)C(=O)CC6OCC=C(C1)C(CC32)C6C45 (stereo not given) in this test
inactive

Query: recorded result category for Cc1c(C)c(N)c(C)c(C)c1N in this test
inactive

Query: recorded result category for CC(=O)Nc1nc2c(s1)C1=CC[C@H]3[C@@H]4CC[C@H](OC(C)=O)[C@@]4(C)CC[C@@H]3[C@@]1(C)CC2 in this test
inactive

Query: recorded result category for COc1c(O)cc2c(c1OC)-c1ccc(SC)c(=O)cc1C(NC(C)=O)CC2 (stereo not given) in this test
inactive

Query: recorded result category for O=C1C=C(N2CC2)c2ccccc2C1=O in this test
inactive

Query: recorded result category for O=[N+]([O-])c1cc(Br)c(O)c(Br)c1 in this test
inactive

Query: recorded result category for O=C1c2ccccc2C(=O)N1N1CC1c1ccccc1 (stereo not given) in this test
inactive

Query: recorded result category for CC1=CC(=O)CCC12CCOC2=O (stereo not given) in this test
inactive

Query: recorded result category for Cc1cc2c(cc1-c1ccnc(/C=C/C(=O)O)c1)C(C)(C)CCC2(C)C in this test
inactive

Query: recorded result category for C[Se]/C=C1/C(=O)N(c2c(Cl)cccc2Cl)c2ccccc21 in this test
inactive

Query: recorded result category for CSc1cc(/C=C(\C)[C@@H]2C[C@@H]3O[C@]3(C)CCC[C@H](C)[C@H](O)[C@@H](C)C(=O)C(C)(C)[C@@H](O)CC(=O)O2)n(CCNC(=O)OC(C)(C)C)n1 in this test
inactive

Query: recorded result category for CCC(=O)C(CC(C)[N+](C)(C)C)(c1ccccc1)c1ccccc1 (stereo not given) in this test
inactive

Query: recorded result category for Nc1ccc2c(c1)Cc1cc(N)ccc1-2 in this test
inactive

Query: recorded result category for CC[PH+](CC)CC.O=COC1OC([S-])C(OC=O)C(OC=O)C1OC=O.[Au+] (stereo not given) in this test
active

Query: recorded result category for C[C@]12CCc3nc(-c4ccc(O)c(O)c4)sc3C1=CC[C@@H]1[C@@H]2CC[C@]2(C)C(=O)CC[C@@H]12 in this test
inactive

Query: recorded result category for COC1C(O)CC(OC2CC(Oc3cc4cc5c(c(O)c4c(O)c3C)C(=O)[C@@H](OC3CC(OC4CC(OC6CC(C)(O)C(OC(C)=O)C(C)O6)C(O)C(C)O4)C(O)C(C)O3)[C@H]([C@H](OC)C(=O)[C@@H](O)[C@@H](C)O)C5)OC(C)C2OC(C)=O)OC1C (stereo not given in full) in this test
inactive

Query: recorded result category for O=P(O)(Nc1ccccc1)Nc1ccccc1 in this test
inactive

Query: recorded result category for O=NN1CCCCC1 in this test
inactive

Query: recorded result category for CC1(C)CN=C(NN=C(/C=C/c2ccc(C(F)(F)F)cc2)/C=C/c2ccc(C(F)(F)F)cc2)NC1 in this test
active

Query: recorded result category for N#CCC(=O)c1ccccc1 in this test
inactive

Query: recorded result category for CC[C@H](C)[C@H](NC(=O)[C@H]1CCCCN1C)C(=O)N(C)[C@H](C[C@@H](OC(C)=O)c1cccc(C(=O)N[C@@H](Cc2ccccc2)C[C@H](C)C(=O)OC)n1)C(C)C in this test
inactive

Query: recorded result category for COC(=O)CCP(CCC(=O)OC)c1ccccc1 in this test
inactive

Query: recorded result category for C[C@]12CCC(=O)C[C@@H]1CC[C@@H]1[C@@H]2CC[C@]2(C)[C@@H](OC(=O)N(CCCl)N=O)CC[C@@H]12 in this test
inactive

Query: recorded result category for CC12CCC3C4CCC(=O)C=C4CCC3C1CC1CC(=O)OC12 (stereo not given) in this test
inactive

Query: recorded result category for Oc1ccccc1C=NCCN=Cc1ccccc1O in this test
inactive

Query: recorded result category for O=P1(N(CCCl)CCCl)NCCCO1 (stereo not given) in this test
inactive

Query: recorded result category for CC1=C([Te]c2ccccc2)C(=O)c2ccccc2C1=O in this test
active

Query: recorded result category for C/C(=C(\c1ccc(OCCN2CCOCC2)cc1)c1ccc(OC(=O)Cc2ccccc2)cc1)c1ccc(Cl)cc1 in this test
inactive

Query: recorded result category for CCCCOCCOP(=O)(OCCOCCCC)OCCOCCCC in this test
inactive

Query: recorded result category for O=CC1(c2ccccc2)CCN(Cc2ccccc2)CC1 in this test
inactive

Query: recorded result category for COc1ccc2c(c1)c(-c1nc(-c3cn(C)c4ncccc34)cs1)cn2CCCCN1CCOCC1 in this test
inactive
